# System: CCRF-CEM leukemia
# Assay Procedure: NCI tumour cell line growth inhibition, 48 h; in the data active = GI50 below about 0.43 µM; inactive = the rest
Classes used: 1 (active), 0 (inactive)

[[record]]
compound = "COc1ccc2c(c1)O/C(=C\\c1cccc(OCC(=O)Nc3nc(C)c(C)s3)c1)C2=O"
answer_label = 1

[[record]]
compound = "Cc1noc(C)c1-c1cnc2c(-c3ccc(C(=O)O)cc3)cn([C@@H](C)c3ccccn3)c2c1"
answer_label = 0

[[record]]
compound = "Cc1cn2c(/C=N/N=C(N)N)c(-c3ccncc3)nc2s1"
answer_label = 0

[[record]]
compound = "Cn1cc(C2=C(c3ccccc3C(F)(F)F)C(=O)NC2=O)c2ccccc21"
answer_label = 0

[[record]]
compound = "NC(CSC(c1ccccc1)(c1ccccc1)c1ccc(F)cc1)C(=O)O (stereo not given)"
answer_label = 1

